Measured Relative KD, listed per entry for reference.
Target: T1, human PVR (SPR of the humanized variants, Example 5) (human, UniProt P15151 21-343)
T1 sequence: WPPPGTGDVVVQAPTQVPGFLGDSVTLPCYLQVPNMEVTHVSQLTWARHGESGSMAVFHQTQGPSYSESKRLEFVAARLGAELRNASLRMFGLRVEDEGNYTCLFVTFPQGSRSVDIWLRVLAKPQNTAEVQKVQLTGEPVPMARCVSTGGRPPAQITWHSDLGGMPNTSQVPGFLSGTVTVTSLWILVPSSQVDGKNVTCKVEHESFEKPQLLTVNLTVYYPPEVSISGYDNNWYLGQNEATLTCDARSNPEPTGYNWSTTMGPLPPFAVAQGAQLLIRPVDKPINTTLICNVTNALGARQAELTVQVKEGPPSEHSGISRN
Assay: SPR; relative to N56E VH0/Vκ0
Give a plain numeric answer without units written out.

BINDER: humanized 5B9 variant VH1/VK2 (antibody, V domains shown) VH: QVQLVQSGAELKKPGASVKISCKATGYTFSNYWIEWIKQAPGQGLEWIGEIFPGSGRINFNEKFKGRATFTADTSIDTTYMQLSSLTSDDSAVYYCARTKIYGNSFDYWGQGTTVTVSS VL: DIQMTQSPSSLSASVGDRVTITCKASQDVGTAVVWYQQKPGKAPKLLIYWASSRHEGVPDRFSGSGSGTDFTLTISSLQPEDFADYFCQQYSRYPLTFGQGTKLEIK
DATA VALUE: 0.72

Query :: # input binder: IgG4(S241P)_N56E_VH1/Vκ4 (antibody, V domains shown, humanized 5B9 variant with Vk4; also called VH1/Vk4) VH: QVQLVQSGAELKKPGASVKISCKATGYTFSNYWIEWIKQAPGQGLEWIGEIFPGSGRINFNEKFKGRATFTADTSIDTTYMQLSSLTSDDSAVYYCARTKIYGNSFDYWGQGTTVTVSS VL: DIQMTQSPSSLSASVGDRVTITCRASQDVGTAVAWYQQKPGKAPKSLIYWASSRHEGVPSRFSGSGSGTDFTLTISSLQPEDFATYFCQQYSRYPLTFGQGTKLEIK ; wanted: its Relative KD
Result :: 12.5

Provenance of the data: patent US20260152568A1
